Where these numbers come from: patent US9394297B2

Tgt: Pim-1 (Homo sapiens (Human), UniProt P11309)
Sequence (P11309 whole entry): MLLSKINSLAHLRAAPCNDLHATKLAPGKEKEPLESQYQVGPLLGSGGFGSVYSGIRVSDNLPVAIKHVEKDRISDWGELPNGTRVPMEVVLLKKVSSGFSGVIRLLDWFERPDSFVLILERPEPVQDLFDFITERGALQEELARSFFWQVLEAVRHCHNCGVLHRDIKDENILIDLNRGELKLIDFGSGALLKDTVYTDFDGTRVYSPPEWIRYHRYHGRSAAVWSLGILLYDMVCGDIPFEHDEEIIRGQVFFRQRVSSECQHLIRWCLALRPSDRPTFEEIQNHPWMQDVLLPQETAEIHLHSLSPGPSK
Assay: Pim-Mn enzyme assay (HTRF, 384-well), Pim-1
Type: biochemical
Applied Conditions: Pim-1 enzyme 5 pM, ATP 1.5 μM, BAD (S112) 0.5 μM, HTRF, 22-point curve; read-out: Pim-1-Mn IC50 IP
Lab note - cut at 20 nM for IC50: fulfilled if strictly below, not fulfilled if not.

{"columns": ["Smiles Representation", "Assigned Label"],
 "data": [
  ["Cc1nc2cccc(-c3cc4c([nH]3)CCNC4=O)c2nc1N[C@H]1CC[C@H](O)CC1", "fulfilled"],
  ["Cc1nc2cccc(-c3cc4c([nH]3)CCNC4=O)c2nc1NCC(C)(C)C", "fulfilled"],
  ["COCCOCCn1c(NC(C)(C)C)nc2c(-c3cc4c([nH]3)[C@@H](C)NC4=O)cccc2c1=O", "fulfilled"],
  ["CC(=O)N1CC[C@H](Nc2nc3c(-c4cc5c([nH]4)CCNC5=O)cccc3nc2C)C1", "not fulfilled"],
  ["Cc1nc2cccc(-c3cc4c([nH]3)CCNC4=O)c2nc1N1CCC1", "not fulfilled"],
  ["Cc1nc2cccc(-c3cc4c([nH]3)CCNC4=O)c2nc1-c1nccn1C", "not fulfilled"],
  ["Cc1nc2cccc(-c3cc4c([nH]3)CCNC4=O)c2nc1N(C)C(C)(C)C", "fulfilled"],
  ["CC1(C)CN(c2cnc3cccc(-c4cc5c([nH]4)CCNC5=O)c3n2)CCN1", "fulfilled"]
]}

###

// values below are reported pIC50
Tgt: Pim-1 (Homo sapiens (Human))
Assay: Pim-Mn enzyme assay (HTRF, 384-well), Pim-1
Assay type: biochemical
Applied Conditions: Pim-1 enzyme 5 pM, ATP 1.5 μM, BAD (S112) 0.5 μM, HTRF, 22-point curve; read-out: Pim-1-Mn IC50 IP
pIC50: −log10 of the molar value.
Measure: pIC50

{"columns": ["Smiles Representation", "Recorded Number"],
 "data": [
  ["Cc1nc2cccc(-c3cc4c([nH]3)CCNC4=O)c2nc1N1CC(S(C)(=O)=O)C1", 7.47],
  ["CC[C@H]1NC(=O)c2cc(-c3cccc4c(=O)n(C5CC5)c(NC(C)(C)C)nc34)[nH]c21", 9.00],
  ["Cc1nc2cccc(-c3cc4c([nH]3)CCNC4=O)c2nc1NCC1(C)CC1", 8.91],
  ["Cc1nc2cccc(-c3[nH]c4c(c3Br)C(=O)NCC4)c2nc1NC(C)(C)C", 9.20]
]}

###

Tgt: Pim-2 (Homo sapiens (Human))
Sequence (Q9P1W9 whole entry): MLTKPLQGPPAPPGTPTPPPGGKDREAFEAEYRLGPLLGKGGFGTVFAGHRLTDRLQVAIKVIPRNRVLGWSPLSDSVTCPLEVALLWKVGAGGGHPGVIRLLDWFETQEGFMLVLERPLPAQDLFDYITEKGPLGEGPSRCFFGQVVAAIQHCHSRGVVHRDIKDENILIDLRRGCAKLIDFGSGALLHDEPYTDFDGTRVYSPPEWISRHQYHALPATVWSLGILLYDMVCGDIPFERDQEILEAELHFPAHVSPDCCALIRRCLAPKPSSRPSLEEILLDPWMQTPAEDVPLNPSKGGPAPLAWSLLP
Assay: Pim enzyme assay (HTRF, 96-well), Pim-2
Type: biochemical
Applied Conditions: full length recombinant Pim-2, biotinylated-BAD (S112) peptide, 10-point curve, 45 min RT, read-out: Pim-2 IC50 IP

{"columns": ["Compound", "IC50 (nM)"],
 "data": [
  ["CCCNc1nc2c(-c3cc4c([nH]3)CCNC4=O)cccc2nc1C [Example 191]", 6.6],
  ["Cc1nc2cccc(-c3cc4c([nH]3)CCNC4=O)c2nc1N1CCC1 [Example 139]", 16],
  ["O=C1NCC(Cc2ccccc2)c2[nH]c(-c3cccc4cccnc34)cc21 (racemic) [Example 119]", 206],
  ["O=C1NCCc2[nH]c(-c3cccc4ccc(Nc5cccc(F)c5)nc34)cc21 [Example 45]", 7.7],
  ["COc1ccc(Cl)cc1-c1ccc2cccc(-c3cc4c([nH]3)CCNC4=O)c2n1 [Example 88]", 166]
]}

###

Tgt: Pim-1 (Homo sapiens (Human), UniProt P11309)
Assay: Pim enzyme assay (HTRF, 96-well), Pim-1
Format: biochemical
Applied Conditions: full length recombinant Pim-1, biotinylated-BAD (S112) peptide, 10-point curve, 2 h RT, read-out: Pim-1 IC50 IP
Categories are defined by ranges of IC50, namely label 0 (below 5 nM), label 1 (5 nM to below 40 nM), label 2 (40 nM or more)

{"columns": ["Compound", "Assigned Label"],
 "data": [
  ["O=C1NCCn2cc(-c3cccc4ccc(C(=O)N5CCOCC5)nc34)cc21", "label 2"],
  ["COC(=O)[C@H](C)Nc1nc2c(-c3cc4c([nH]3)CCNC4=O)cccc2nc1C", "label 2"],
  ["Cc1nc2cccc(-c3cc4c([nH]3)CCNC4=O)c2nc1NC1(C)CCC1", "label 0"],
  ["N[C@@H]1CCC[C@H](Nc2ccc3cccc(-c4cc5c([nH]4)CCNC5=O)c3n2)C1 (single isomer, unassigned) [Example 122]", "label 0"],
  ["O=C1NCCc2[nH]c(-c3cccc4ccc(Cl)nc34)cc21", "label 2"],
  ["Cc1nc2cccc(-c3cc4c([nH]3)CCNC4=O)c2nc1N1CCCC1", "label 1"],
  ["O=C1NCCc2[nH]c(-c3cccc4ccc(Nc5ccccc5Cl)nc34)cc21", "label 0"],
  ["Cn1cc(-c2ccc3ccc(F)c(-c4cc5c([nH]4)CCNC5=O)c3n2)cn1", "label 2"],
  ["CCC1CNC(=O)c2cc(-c3cccc4cc(C)c(Nc5ccccc5)nc34)[nH]c21 (single isomer, unassigned) [Example 117]", "label 0"],
  ["O=C1NCCc2[nH]c(-c3cccc4ccc(Oc5c(F)cccc5Cl)nc34)cc21", "label 0"],
  ["O=C1NCCc2[nH]c(-c3c(F)ccc4ccc(Nc5ccccc5)nc34)cc21", "label 0"],
  ["O=C1NCCc2[nH]c(-c3cccc4ccc(OC5CCCC5)nc34)cc21", "label 1"],
  ["O=C1NCCc2[nH]c(-c3cccc4ccc(N[C@H]5CCCNC5)nc34)cc21", "label 0"],
  ["O=c1[nH]ccc2[nH]c(-c3cccc4ccc(Nc5ccccc5Cl)nc34)cc12", "label 1"],
  ["Cc1nc2cccc(-c3cc4c([nH]3)CCNC4=O)c2nc1NC(C)(C)CO", "label 0"],
  ["Cc1nc2cccc(-c3cc4c([nH]3)CCNC4=O)c2nc1N1CCC1", "label 1"],
  ["O=C(NC1CC1)c1ccc2cccc(-c3cc4c([nH]3)CCNC4=O)c2n1", "label 2"],
  ["O=C1NCCc2[nH]c(-c3c(F)ccc4ccc(NC5CCCCC5)nc34)cc21", "label 2"],
  ["O=C1NCCc2[nH]c(-c3cccc4ccc(Oc5cccc(Cl)c5)nc34)cc21", "label 1"],
  ["Cn1cc(-c2cccc3ccc(Nc4ccccc4)nc23)cc1C(N)=O", "label 2"],
  ["O=C1NCCc2[nH]c(-c3cccc4ccc(Oc5ccccc5Cl)nc34)cc21", "label 1"]
]}

###

// values below are reported pIC50
Tgt: Pim-2 (Homo sapiens (Human))
Assay: Pim-Mn enzyme assay (HTRF, 384-well), Pim-2
Assay type: biochemical
Applied Conditions: Pim-2 enzyme 0.5 pM, ATP 1.5 μM, BAD (S112) 0.5 μM, HTRF, 22-point curve; read-out: Pim-2-Mn IC50 IP
pIC50: −log10 of the molar value.

{"columns": ["Molecule", "pIC50"],
 "data": [
  ["Cc1nc2cccc(-c3cc4c([nH]3)CCNC4=O)c2nc1-c1ccccc1", 7.09],
  ["Cc1nc2cccc(-c3cc4c([nH]3)CCNC4=O)c2nc1N[C@@H]1CCCN(C(=O)OC(C)(C)C)C1", 6.39],
  ["Cc1nc2cccc(-c3cc4c([nH]3)CCNC4=O)c2nc1N[C@@H](C)C1CC1", 8.85],
  ["Cc1nc2cccc(-c3cc4c([nH]3)CCNC4=O)c2nc1N[C@H](C)C1CC1", 8.70],
  ["CC(C)Nc1nc2c(-c3cc4c([nH]3)[C@@H](C)NC4=O)c(F)ccc2c(=O)n1C1CC1", 9.70],
  ["CC[C@H]1NC(=O)c2cc(-c3cccc4c(=O)n(C)c(NC(C)(C)C)nc34)[nH]c21", 9.10],
  ["CCCCNc1nc2c(-c3cc4c([nH]3)CCNC4=O)cccc2nc1C", 8.77],
  ["Cc1nc2cccc(-c3cc4c([nH]3)C3(CCOCC3)NC4=O)c2nc1NC(C)(C)C", 7.20],
  ["Cc1ccccc1-c1nc2c(-c3cc4c([nH]3)CCNC4=O)cccc2nc1C", 6.90],
  ["Cc1nc2cccc(-c3cc4c([nH]3)CCNC4=O)c2nc1NCC(F)(F)F", 8.88],
  ["Cc1nc2cccc(-c3cc4n(c3)C(CCO)CNC4=O)c2nc1NC(C)(C)C (racemic)", 7.84],
  ["C[C@H]1NC(=O)c2cc(-c3cccc4c(=O)n(C5CC5)c(NC5(C)CCC5)nc34)[nH]c21", 9.70],
  ["Cc1nc2cccc(-c3cc4c([nH]3)[C@@H](C)NC4=O)c2nc1NC(C)C", 8.79],
  ["Cc1nc2cccc(-c3cc4c([nH]3)CCNC4=O)c2nc1N", 7.76],
  ["CN(c1ncc2cccc(-c3cc4c([nH]3)CCNC4=O)c2n1)C(C)(C)C", 8.48],
  ["Cc1nc2cccc(-c3cc4c([nH]3)CCCC4=O)c2nc1NC(C)(C)C", 8.83],
  ["Cc1nc2cccc(-c3cc4c([nH]3)CCNC4=O)c2nc1NC1CCCNC1=O (racemic)", 7.38],
  ["CC(C)(C)Nc1nc2c(-c3cc4c([nH]3)CCNC4=O)cccc2nc1N1CC(O)C1", 7.97],
  ["O=C1NCCc2[nH]c(-c3cccc4ccc(NC5CC5)nc34)cc21", 8.15],
  ["Cc1nc2cccc(-c3cc4c([nH]3)CCNC4=O)c2nc1N[C@H]1CCCN(C(=O)OC(C)(C)C)C1", 6.66],
  ["Cc1nc2cccc(-c3cc4c([nH]3)CCNC4=O)c2nc1N[C@H]1CC[C@H]1N (racemic)", 8.54],
  ["CCn1c(NC(C)(C)C)nc2c(-c3cc4c([nH]3)[C@@H](C)NC4=O)c(F)ccc2c1=O", 10.13],
  ["CC(C)Nc1nc2c(-c3cc4c([nH]3)CCNC4=O)cccc2c(=O)n1-c1cccnc1", 7.79],
  ["CC(C)(C)Nc1nc2c(-c3cc4c([nH]3)CCNC4=O)cccc2nc1-c1ccccc1", 7.92],
  ["Cc1nc2cccc(-c3cc4c([nH]3)CCNC4=O)c2nc1N(C)C(C)(C)C", 8.68],
  ["Cc1nc2cccc(-c3cc4c([nH]3)CCNC4=O)c2nc1NC(C)(C)C(F)(F)F", 8.65],
  ["Cc1nc2cccc(-c3cc4c([nH]3)CCNC4=O)c2nc1NC(C)C(F)(F)F (stereo in doubt)", 8.36],
  ["Cn1c(NC(C)(C)C)nc2c(-c3cc4c([nH]3)[C@@H](CCN)NC4=O)cccc2c1=O", 10.70],
  ["Cc1nc2cccc(-c3cc(C(N)=O)n[nH]3)c2nc1NC(C)(C)C", 8.05],
  ["CCNc1nc2c(-c3cc4c([nH]3)CCNC4=O)cccc2nc1C", 8.77],
  ["Cc1nc2cccc(-c3cc4c([nH]3)C(COCc3ccccc3)NC4=O)c2nc1NC1(C)CC1 (stereo not drawn)", 8.73],
  ["Cc1nc2cccc(-c3[nH]c4c(c3Cl)C(=O)N[C@@H]4C)c2nc1NC1(C)CC1", 9.22],
  ["Cc1nc2cccc(-c3cc4c([nH]3)CCN(C(=O)OC(C)(C)C)C4=O)c2nc1NC(C)(C)C", 7.19]
]}
